# studySystem: Follistatin-related protein 3 (Homo sapiens) (UniProt O95633)
# Sequence (O95633 whole entry, looked up): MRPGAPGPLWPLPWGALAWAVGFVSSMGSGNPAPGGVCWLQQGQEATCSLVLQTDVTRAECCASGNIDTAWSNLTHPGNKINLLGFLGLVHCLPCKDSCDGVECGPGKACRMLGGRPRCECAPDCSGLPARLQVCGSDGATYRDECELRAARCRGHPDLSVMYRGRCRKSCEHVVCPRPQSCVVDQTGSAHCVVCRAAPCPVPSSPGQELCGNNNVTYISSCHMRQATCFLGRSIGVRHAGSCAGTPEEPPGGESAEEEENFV
# assayOverview: compounds binding follistatin-related protein 3 – biochemical, small-molecule microarray, 635 nm fluorescence, primary screen (AID 1105);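 further: score merges emission near 667 nm and signal to noise per printed spot across three slides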
# testContext: FSTL3 binding, higher = more signal
Collected composite z-score values appear next to each entry.
measuredMetric: composite z-score

>>> numericresult("O=C(NCC(O)CO)[C@@]1(Cc2ccccc2)COC(c2ccc(OCCCO)cc2)=N1 (stereo partly specified)")
-1.21
>>> numericresult("C=CCNC(=O)[C@H]1[C@@H]2C(=O)O[C@@H](c3ccccc3)[C@@H](c3ccccc3)N2[C@@H](c2ccc(O)cc2)[C@]12C(=O)Nc1ccc(C#Cc3ccc(OC)cc3)cc12")
1.21
>>> numericresult("COc1ccc([Si](C)(C)[C@H]2[C@H](CC(=O)N(CCO)Cc3ccccc3)O[C@@]3(C(=O)N(Cc4cccc(N5C(=O)c6cccc7cccc5c67)c4)c4ccccc43)[C@@H]2C)cc1")
0.303
>>> numericresult("COc1ccc([Si](C)(C)[C@@H]2[C@@H](CCO)O[C@]3(C(=O)N(Cc4ccc(N5C(=O)c6cccc7cccc5c67)cc4)c4ccccc43)[C@H]2C)cc1")
-0.66
>>> numericresult("CCCC[C@H]1OB(O)C[C@H]2C1=C(C)Cn1c(=O)n(-c3ccccc3)c(=O)n12")
0.662
>>> numericresult("C[N+](C)(C)CCCC[C@@H]1NC(=O)[C@H]2C[C@@H](C(=O)O)[C@@H](c3cccc(OCCO)c3)N2C1=O")
1.41
>>> numericresult("O=C(NCC(O)CO)[C@@]1(Cc2ccccc2)N=C(c2ccc(OCCCO)cc2)O[C@H]1c1ccccc1 (stereo partly specified)")
-0.378
>>> numericresult("C=C(C(=O)CC[C@@H](OC(C)=O)c1ccc(OCCO)cc1)C(C)C")
-0.152
>>> numericresult("CCOC1=C2C(c3ccc(C)cc3)N(S(=O)(=O)c3ccc(C)cc3)CC2n2c(=O)n(-c3ccccc3)c(=O)n2C1 (stereo unspecified)")
1.26
>>> numericresult("O=C(NCC(O)CO)[C@]1(CCS(=O)(=O)c2ccccc2)N=C(c2ccc(OCCCO)cc2)O[C@@H]1c1ccccc1 (stereo partly specified)")
-0.365
>>> numericresult("[N-]=[N+]=NCc1ccccc1[C@H]1OC(c2ccc(OCCCO)cc2)=N[C@@]1(Cc1ccccc1)C(=O)O")
0.47
>>> numericresult("[N-]=[N+]=Nc1ccccc1[C@@H]1OC(c2ccc(OCCCO)cc2)=N[C@]1(CCS(=O)(=O)c1ccccc1)C(=O)N1CCCCC1")
0.811
>>> numericresult("Cc1ccc(S(=O)(=O)N2CC(C(=O)O)=CCC2c2ccccc2)cc1 (stereo unspecified)")
-0.95
>>> numericresult("C=CCC(OC(C)=O)[C@@H]1[C@@H](N(Cc2cc3ccccc3o2)C(=O)c2cccc3ccccc23)c2cc(OCCCO)ccc2N1C(=O)Cc1ccc(OC)cc1 (stereo partly specified)")
0.579
>>> numericresult("C=CC[C@@]1(C(=O)OC)N=C(c2ccc(OCCCO)cc2)O[C@@H]1c1ccccc1CN=[N+]=[N-]")
0.201
>>> numericresult("COc1cc(NN2C(C(O)c3ccccc3)C=CC3C(=O)N(c4ccccc4)C(=O)C32)cc(OC)c1OC (stereo unspecified)")
1.47

###

# assayOverview: probe aLefty1 binding on compound microarray – biochemical, small-molecule microarray, 635/667 nm fluorescence, primary screen (AID 1153);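 further: score merges spot fluorescence with signal-to-noise ratio from the scanned slide images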
# testContext: higher = more signal
Collected composite z-score values appear next to each entry.
measuredMetric: composite z-score

>>> numericresult("Cc1ccc(C(C)CC(O)C2C=CC3C(=O)NC(=O)C3N2Nc2ccccn2)o1 (centres undefined)")
-0.154
>>> numericresult("COCCCNC(=O)[C@@]1(C)c2ccccc2C(=O)N(Cc2ccccc2)[C@H]1c1ccc(CO)cc1")
0.114
>>> numericresult("CCOC(=O)C[C@H]1[C@H](OC(=O)c2ccccc2-c2ccccc2)[C@@H](NC(=O)c2ccc(-c3ccccc3)cc2)c2cc(OCCCO)ccc2N1C(=O)c1ccccc1")
0.0121
>>> numericresult("O=C(N1CCCCC1)[C@]1(CCS(=O)(=O)c2ccccc2)N=C(c2ccc(OCCCO)cc2)O[C@@H]1c1ccccc1")
1.17
